Values were extracted from PubChem BioAssay AID2060884.

# Test system: NCI-H929 complex spheroids, viability % test/control
# experimentSummary: Anticancer human tumor NCI-H929 cell line growth inhibition [RAS];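 note: compound exposure lasted seven days before viability was read; 100% = DMSO vehicle control viability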
# measurementParameters: second compound 0.03 µM; first compound 0.1 µM; stronger effect = lower value
measuredParameter: viability, T/C (%)
Please reply with the bare figure in % and do not write the unit itself.

Worked cases, viability, T/C given:
molecule	viability, T/C / %
O=C(c1ccc(F)c(F)c1Nc1ccc(I)cc1F)N1CC(O)([C@@H]2CCCCN2)C1 + CCn1c(-c2cccnc2C(C)OC)c2c3cc(ccc31)N1CCOC(CC(NC(=O)C(C(C)C)N(C)C(=O)C3(F)CCN(C(=O)C#CC(C)(C)N(C)C)CC3)C(=O)N3CCCC(N3)C(=O)OCC(C)(C)C2)C1	96.9
CCC(CC)c1cc(NC2CCC(N)C2)n2nccc2n1 (stereo not drawn) + CCn1c(-c2cc(N3CCN(C)CC3)cnc2C(C)OC)c2c3cc(ccc31)-c1csc(n1)CC(NC(=O)C1CC1C)C(=O)N1CCCC(N1)C(=O)OCC(C)(C)C2	34.9

Q: Dear colleague, I am looking for the recorded viability, T/C of the following molecule: CC(C)n1nc(-c2ccc3oc(N)nc3c2)c2c(N)ncnc21 + CCn1c(-c2cccnc2C(C)OC)c2c3cc(ccc31)N1CCOC(CC(NC(=O)C(C(C)C)N(C)C(=O)C3(F)CCN(C(=O)C#CC(C)(C)N(C)C)CC3)C(=O)N3CCCC(N3)C(=O)OCC(C)(C)C2)C1
Ans: 1.72

Q: Dear colleague, I am looking for the recorded viability, T/C of the following molecule: Cc1nc(N2CCC3(CC2)COC(C)C3N)c(CO)nc1Sc1ccnc(N)c1Cl (stereo not drawn) + CCn1c(-c2cc(N3CCN(C)CC3)cnc2C(C)OC)c2c3cc(ccc31)-c1csc(n1)CC(NC(=O)C1CC1C)C(=O)N1CCCC(N1)C(=O)OCC(C)(C)C2
Ans: 25.4

---

viability, T/C listing for selected molecules.
# System: NCI-H929 complex spheroids, viability % test/control
# experimentSummary: Anticancer human tumor NCI-H929 cell line growth inhibition [RAS];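 note: compound exposure lasted seven days before viability was read; 100% = DMSO vehicle control viability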
# measurementParameters: second compound 10 µM; first compound 0.00316 µM; stronger effect = lower value
Please reply with the bare figure in % and do not write the unit itself.

molecule	testedOn	viability, T/C, %
O=C(c1ccc(F)c(F)c1Nc1ccc(I)cc1F)N1CC(O)([C@@H]2CCCCN2)C1 + C#Cc1c(F)ccc2cc(O)cc(-c3ncc4c(N5CC6CCC(C5)N6)nc(OCC56CCCN5CC(F)C6)nc4c3F)c12	NCI-H929 complex spheroids, viability % test/control	94

Q: Dear colleague, I am looking for the recorded viability, T/C of the following molecule: C=CC(=O)N1CCN(c2nc(OCC3CCCN3C)nc3c(F)c(-c4nc(N)cc(C)c4C(F)(F)F)c(Cl)cc23)C(C)C1 (centres undefined) + C#Cc1c(F)ccc2cc(O)cc(-c3ncc4c(N5CC6CCC(C5)N6)nc(OCC56CCCN5CC(F)C6)nc4c3F)c12
Ans: 104

Q: Dear colleague, I am looking for the recorded viability, T/C of the following molecule: C=CC(=O)Nc1cc(Nc2nccc(-c3cn(C)c4ccccc34)n2)c(OC)cc1N(C)CCN(C)C + C#Cc1c(F)ccc2cc(O)cc(-c3ncc4c(N5CC6CCC(C5)N6)nc(OCC56CCCN5CC(F)C6)nc4c3F)c12
Ans: 94

Q: Dear colleague, I am looking for the recorded viability, T/C of the following molecule: CCN1CCN(Cc2ccc(Nc3ncc(F)c(-c4cc(F)c5nc(C)n(C(C)C)c5c4)n3)nc2)CC1 + C#Cc1c(F)ccc2cc(O)cc(-c3ncc4c(N5CC6CCC(C5)N6)nc(OCC56CCCN5CC(F)C6)nc4c3F)c12
Ans: 98.5
